Data provenance: patent US20230158141A1

Reported values of Binding recovery (>60%) for individual entries
- Tgt: T1, IL-10R2-Fc/His (UniProt Q08334 20-220, limits assumed)
- T1 sequence (looked up): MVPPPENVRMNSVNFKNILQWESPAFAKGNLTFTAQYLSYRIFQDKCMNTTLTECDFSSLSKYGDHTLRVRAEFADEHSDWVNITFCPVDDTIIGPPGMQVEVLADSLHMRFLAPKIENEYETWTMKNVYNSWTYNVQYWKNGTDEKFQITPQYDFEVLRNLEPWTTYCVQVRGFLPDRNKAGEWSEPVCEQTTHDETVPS
- Assay: ELISA, IL-10R2-Fc/His coated
Measured Quantity: Binding recovery (>60%)

Binder	Measured Quantity	Recorded Value
IL-10 Lys119Cys-R4-7 (ligand, human, UniProt P22301 19-178, looked up, R4-7 on Cys 119, mature) SPGQGTQSENSCTHFPGNLPNMLRDLRDAFSRVKTFFQMKDQLDNLLLKESLLEDFKGYLGCQALSEMIQFYLEEVMPQAENQDPDIKAHVNSLGENLKTLRLRLRRCHRFLPCENKSCAVEQVKNAFNKLQEKGIYKAMSEFDIFINYIEAYMTMKIRN	Binding recovery (>60%)	106
IL-10 Arg104Cys-R4-20 (ligand, human, UniProt P22301 19-178, looked up, R4-20 on Cys 104, mature) SPGQGTQSENSCTHFPGNLPNMLRDLRDAFSRVKTFFQMKDQLDNLLLKESLLEDFKGYLGCQALSEMIQFYLEEVMPQAENQDPDIKAHVNSLGENLKTLRLCLRRCHRFLPCENKSKAVEQVKNAFNKLQEKGIYKAMSEFDIFINYIEAYMTMKIRN	Binding recovery (>60%)	96.6
IL-10 Lys88Cys-R4-7 (ligand, human, UniProt P22301 19-178, looked up, R4-7 on Cys 88, mature) SPGQGTQSENSCTHFPGNLPNMLRDLRDAFSRVKTFFQMKDQLDNLLLKESLLEDFKGYLGCQALSEMIQFYLEEVMPQAENQDPDICAHVNSLGENLKTLRLRLRRCHRFLPCENKSKAVEQVKNAFNKLQEKGIYKAMSEFDIFINYIEAYMTMKIRN	Binding recovery (>60%)	99
